These entries and their values trace back to patent US10576062B2.

- target.entity: human LPA1 (Homo sapiens)
- Construct: expressed in transfected cells; host or cells: Chinese hamster ovary (CHO) cells
- Sequence (Q92633 whole entry): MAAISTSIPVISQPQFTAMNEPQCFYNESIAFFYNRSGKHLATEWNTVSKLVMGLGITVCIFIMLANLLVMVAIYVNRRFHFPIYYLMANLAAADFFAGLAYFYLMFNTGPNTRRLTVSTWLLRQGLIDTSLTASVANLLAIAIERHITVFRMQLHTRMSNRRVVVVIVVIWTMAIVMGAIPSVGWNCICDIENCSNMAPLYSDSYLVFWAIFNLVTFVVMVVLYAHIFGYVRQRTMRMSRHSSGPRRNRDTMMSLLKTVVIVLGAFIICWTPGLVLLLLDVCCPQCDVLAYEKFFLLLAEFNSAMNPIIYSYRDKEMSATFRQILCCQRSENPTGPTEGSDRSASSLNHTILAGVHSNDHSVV
- test.description: LPA1 functional antagonist assay (LPA-induced calcium flux)
- Format: cell-based
- conditions.used: human LPA1; read-out: hLPA1 IC50
measurement.type: pIC50
A value of pIC50 is the negative decimal logarithm of a concentration given in moles per litre.

Would you please look over these solved cases?
CCCN(C)C(=O)OCc1c(-c2ccc(O[C@H]3CCC[C@H](C(=O)O)C3)cn2)nnn1C
6.88
CN(C(=O)OCc1c(-c2ccc(O[C@H]3CCC[C@H](C(=O)O)C3)cn2)nnn1C)C1CC(C)(C)C1
7.00
Cc1nc(-c2nnn(C)c2COC(=O)N(C)CCC2CC2)ccc1O[C@H]1CCC[C@H](C(=O)O)C1
7.47

Data request: What measured pIC50 goes with Cc1nc(-c2nnn(C)c2COC(=O)N2CC3(CCCC3)C2)ccc1O[C@H]1CCC[C@H](C(=O)O)C1 ?
Data returned: 6.79

Data request: Continue with Cc1nc(-c2nnn(C)c2COC(=O)N2CCCC(C)C2)ccc1O[C@H]1CCC[C@H](C(=O)O)C1 (mixture of isomers)
Data returned: 6.75

Data request: Subsequent entry: Cc1nc(-c2nnn(C)c2COC(=O)NCCCCF)ccc1O[C@H]1CCC[C@H](C(=O)O)C1
Data returned: 6.26

Data request: Continue with Cn1nnc(-c2ccc(O[C@H]3CCC[C@H](C(=O)O)C3)cn2)c1COC(=O)N1CCC2(CCC2)C1
Data returned: 6.15

Data request: Do the same for Cc1nc(-c2nnn(C)c2COC(=O)N(C)CCCF)ccc1O[C@H]1CCC[C@H](C(=O)O)C1 please
Data returned: 7.09

Data request: Similarly, CN(C(=O)OCc1c(-c2ccc(O[C@H]3CCC[C@H](C(=O)O)C3)cn2)nnn1C)C1CCC1 ?
Data returned: 7.24

Data request: Also need Cc1nc(-c2nnn(C)c2COC(=O)N2CCC(c3ccccc3)C2)ccc1O[C@H]1CCC[C@H](C(=O)O)C1 (mixture of isomers) , thanks.
Data returned: 6.47

Data request: Please answer likewise for Cc1nc(-c2nnn(C)c2COC(=O)N(C)CCCCF)ccc1O[C@H]1CCC[C@H](C(=O)O)C1
Data returned: 7.44

Data request: Let us now turn to Cc1nc(-c2nnn(C)c2COC(=O)N(C)C(C)(C)CF)ccc1O[C@H]1CCC[C@H](C(=O)O)C1
Data returned: 6.81

Data request: What do we get for Cc1nc(-c2nnn(C)c2COC(=O)N(C)C2CC(F)C2)ccc1O[C@H]1CCC[C@H](C(=O)O)C1 (mixture of isomers) ?
Data returned: 7.21

Data request: Try the compound Cc1nc(-c2nnn(C)c2COC(=O)N2CCC(C(C)C)C2)ccc1O[C@H]1CCC[C@H](C(=O)O)C1 (mixture of isomers)
Data returned: 6.98
